molecular target: NEK1 (h) (Homo sapiens (Human)); experiment: Kinase selectivity panel: NEK1 (h); assay type: biochemical; conditions: 10 μM in duplicate, read-out: % inhibition of control values
Sequence (Q96PY6 whole entry): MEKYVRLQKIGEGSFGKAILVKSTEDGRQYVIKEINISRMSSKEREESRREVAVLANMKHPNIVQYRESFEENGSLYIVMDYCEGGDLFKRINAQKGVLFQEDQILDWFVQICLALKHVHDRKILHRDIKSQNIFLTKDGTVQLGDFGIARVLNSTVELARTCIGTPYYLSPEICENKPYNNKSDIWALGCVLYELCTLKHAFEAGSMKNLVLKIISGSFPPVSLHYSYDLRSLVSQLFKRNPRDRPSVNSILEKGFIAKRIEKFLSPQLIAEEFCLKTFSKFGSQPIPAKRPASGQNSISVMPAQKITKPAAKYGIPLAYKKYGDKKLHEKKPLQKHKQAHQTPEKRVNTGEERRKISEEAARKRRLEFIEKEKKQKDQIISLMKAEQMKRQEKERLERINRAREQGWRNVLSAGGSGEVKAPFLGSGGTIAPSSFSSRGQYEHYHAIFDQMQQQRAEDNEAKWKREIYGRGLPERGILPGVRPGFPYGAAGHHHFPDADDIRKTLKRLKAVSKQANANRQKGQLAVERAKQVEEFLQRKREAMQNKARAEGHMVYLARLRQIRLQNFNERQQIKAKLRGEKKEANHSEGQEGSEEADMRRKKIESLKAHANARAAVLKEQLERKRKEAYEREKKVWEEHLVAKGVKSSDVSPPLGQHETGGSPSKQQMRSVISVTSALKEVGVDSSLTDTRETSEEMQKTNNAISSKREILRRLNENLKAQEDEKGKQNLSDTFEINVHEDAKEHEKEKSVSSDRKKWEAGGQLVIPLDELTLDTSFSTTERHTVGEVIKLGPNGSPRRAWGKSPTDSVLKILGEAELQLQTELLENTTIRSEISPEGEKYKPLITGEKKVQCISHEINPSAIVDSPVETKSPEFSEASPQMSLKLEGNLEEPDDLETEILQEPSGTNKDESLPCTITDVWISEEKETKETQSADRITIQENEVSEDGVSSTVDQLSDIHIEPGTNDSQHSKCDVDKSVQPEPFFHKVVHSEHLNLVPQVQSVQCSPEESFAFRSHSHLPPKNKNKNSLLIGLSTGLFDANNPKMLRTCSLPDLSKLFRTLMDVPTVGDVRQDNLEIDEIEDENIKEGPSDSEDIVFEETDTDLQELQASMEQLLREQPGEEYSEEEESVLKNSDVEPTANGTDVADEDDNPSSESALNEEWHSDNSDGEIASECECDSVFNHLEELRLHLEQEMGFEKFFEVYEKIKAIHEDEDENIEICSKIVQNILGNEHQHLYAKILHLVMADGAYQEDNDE
This listing pairs molecules with measured inhibition at 10 µM.
measurement.kind: inhibition at 10 µM (%)

- molecule: "COc1ccc2[nH]nc(C(=O)NCC3CCN(CC(=O)O)CC3)c2c1 [Compound 1]"
  unit.info: "%"
  measured.number: 0
- molecule: "CCc1ccc2[nH]nc(C(=O)NCC3CCN(CC(=O)O)CC3)c2c1 [Compound 31]"
  unit.info: "%"
  measured.number: 0
- molecule: "O=C(O)CN1CCC(CNC(=O)c2n[nH]c3ccc(-c4cccc(F)c4F)cc23)CC1 [Compound 29]"
  unit.info: "%"
  measured.number: 9
- molecule: "COCCN1CCC(CNC(=O)c2n[nH]c3ccc(OC)cc23)CC1 [Compound 2]"
  unit.info: "%"
  measured.number: 0
